Where do these numbers come from? They come from the supplement of paper PMC4862054.

Tested on: BT-474
Details: 72 h
READOUT_NAME: EC50, CellTox Green (nM)
# number only, unit nM dropped from output

# count of solved cases: 3
- COMPOUND: "CC(C)C[C@H](NC(=O)[C@H](CCc1ccccc1)NC(=O)CN1CCOCC1)C(=O)N[C@@H](Cc1ccccc1)C(=O)N[C@@H](CC(C)C)C(=O)[C@@]1(C)CO1 [Carfilzomib]"
  MEASUREMENT_TARGET: "BT-474"
  U: "nM"
  REPORTED: 60.2
- COMPOUND: "CCc1cnn2c(NCc3ccc[n+]([O-])c3)cc(N3CCCC[C@H]3CCO)nc12 [Dinaciclib]"
  MEASUREMENT_TARGET: "BT-474"
  U: "nM"
  REPORTED: 13.2
- COMPOUND: "CC(C)NC[C@@H](C(=O)N1CCN(c2ncnc3c2[C@H](C)C[C@H]3O)CC1)c1ccc(Cl)cc1 [GDC-0068]"
  MEASUREMENT_TARGET: "BT-474"
  U: "nM"
  REPORTED: 5810

Prompt line: Any idea what its EC50, CellTox Green is? The compound is N[C@@H](Cc1ccc(N(CCCl)CCCl)cc1)C(=O)O [Melphalan]
Response line: 347

Prompt line: Any idea what its EC50, CellTox Green is? The compound is CCN(CC)CCOc1ccc(C(=C(Cl)c2ccccc2)c2ccccc2)cc1 [Clomifene]
Response line: 3470

###

Items are presented alongside their recorded normalised response.
Tested on: MDA-MB-453
Experiment: normalised response (% of control), CellTiter-Glo; higher = more viable cells (100 = DMSO, 0 = benzethonium chloride kill control)
Settings: incubation time: 72 h
# number only, unit % dropped from output

# count of solved cases: 6
- COMPOUND: "NC(=O)c1cccc2cn(-c3ccc([C@@H]4CCCNC4)cc3)nc12 [MK-4827] (10000 nM)"
  normalised response, %: 108
- COMPOUND: "COc1cc(Nc2ncc(F)c(Nc3ccc4c(n3)N(COP(=O)(O)O)C(=O)C(C)(C)O4)n2)cc(OC)c1OC [Fostamatinib] (2500 nM)"
  normalised response, %: 64.8
- COMPOUND: "CO[C@H](C(=O)[C@@H](O)[C@@H](C)O)[C@@H]1Cc2cc3cc(O[C@H]4C[C@@H](O[C@@H]5C[C@@H](O)[C@H](O)[C@@H](C)O5)[C@H](O)[C@@H](C)O4)c(C)c(O)c3c(O)c2C(=O)[C@H]1O[C@H]1C[C@@H](O[C@@H]2C[C@@H](O)[C@@H](O[C@@H]3C[C@](C)(O)[C@H](O)[C@@H](C)O3)[C@@H](C)O2)[C@H](O)[C@@H](C)O1 [Plicamycin] (10000 nM)"
  normalised response, %: 16.1
- COMPOUND: "COc1cc2c(N3CCN(C(=O)Nc4ccc(OC(C)C)cc4)CC3)ncnc2cc1OCCCN1CCCCC1 [Tandutinib] (1000 nM)"
  normalised response, %: 99.1
- COMPOUND: "C[C@@H](C(=O)O)c1ccc(-c2ccccc2)c(F)c1 [Tarenflurbil] (10000 nM)"
  normalised response, %: 93.7
- COMPOUND: "CCCCCOC(=O)Nc1nc(=O)n([C@@H]2O[C@H](C)[C@@H](O)[C@H]2O)cc1F [Capecitabine] (10000 nM)"
  normalised response, %: 103

Prompt line: Any idea what its normalised response is? The compound is COc1cc2c(Oc3ccc(NC(=O)C4(C(=O)Nc5ccc(F)cc5)CC4)cc3F)ccnc2cc1OCCCN1CCOCC1 [Foretinib] (1000 nM)
Response line: 125

Prompt line: Any idea what its normalised response is? The compound is O=C(O)CC[C@H]1CC[C@@](c2cc(F)ccc2F)(S(=O)(=O)c2ccc(Cl)cc2)CC1 [MK-0752] (1000 nM)
Response line: 108

Prompt line: Any idea what its normalised response is? The compound is CN1CCc2c(c3ccccc3n2Cc2ccc(C(=O)NO)cc2)C1 [Tubastatin A] (10000 nM)
Response line: 57.4

Prompt line: Any idea what its normalised response is? The compound is Nc1nc(Cl)nc2c1ncn2[C@@H]1O[C@H](CO)[C@@H](O)[C@@H]1F [Clofarabine] (10000 nM)
Response line: 75.3

Prompt line: Any idea what its normalised response is? The compound is Cn1cc(C[C@@H](N)C(=O)O)c2ccccc21 [1-methyl-D-tryptophan] (5000 nM)
Response line: 91.4

Prompt line: Any idea what its normalised response is? The compound is CC[C@H](CC#N)OC(=O)N[C@@H](C)c1cccc(NC(=O)Nc2ccc(-c3cnco3)c(OC)c2)c1 [AVN944] (10000 nM)
Response line: 62.3

Prompt line: Any idea what its normalised response is? The compound is NC1(c2ccc(-c3nc4ccn5c(=O)[nH]nc5c4cc3-c3ccccc3)cc2)CCC1 [MK-2206] (1000 nM)
Response line: 36.6

Prompt line: Any idea what its normalised response is? The compound is Cc1c(C(=O)Nc2ccc(N3C[C@@H](C)O[C@@H](C)C3)nc2)cccc1-c1ccc(OC(F)(F)F)cc1 [Erismodegib] (10000 nM)
Response line: 75.5
